method_summary: Water solubility of the aldehyde
measurement_conditions: Table 3
quantity_measured: Water solubility (ppm)

molecule	unit_text	Water solubility
CC(CC=O)CCCC(C)(C)O (stereo not shown) [Hydroxycitronellal]	ppm	1800

1: CCCCCCCCCC=O [Aldehyde C10]
2: CC1=CC(C)C(C=O)CC1 (stereo not shown) [Tricyclal]
Input: When their Water solubility values are compared, which is larger, 1 or 2 ? Answer by quoting the chosen item's label.
Output: 2

----------
method_summary: Water solubility of the aldehyde
measurement_conditions: Table of Example 13
quantity_measured: Water solubility (ppm)

Below: 5 molecules and their reported Water solubility.
molecule	Water solubility, ppm
CC(C=O)c1ccccc1 (stereo not drawn) [Hydratropic ald]	650
CC(C)=CCCC(C)C=O (stereo not drawn) [Melonal, 2,6-dimethyl-5-heptenal]	344
O=C/C=C/c1ccccc1 [Cinnamic ald]	1900
CC(CC=O)CC(C)(C)C (stereo not drawn) [Ald C9 isononylic]	160
CC(C)c1ccc(C=O)cc1 [Cuminic ald]	280

A: CC1=CC(C)C(C=O)CC1 (stereo not drawn) [Tricyclal]
B: CCCCCC/C(C=O)=C\c1ccccc1 [Hexyl cinnamic ald]
Input: In terms of reported Water solubility, does A or B have the smaller number? I would appreciate it if you answered with the label of your choice.
Output: B

P: CCCCCCCCCC=O [Aldehyde C10]
Q: C/C(C=O)=C\c1ccccc1 [Methyl cinnamic ald]
Input: Please indicate which item has the smaller measured Water solubility: P versus Q Please reply using the label of the selected record.
Output: P
(P: 61 ppm, Q: 580 ppm)

A: CC(CC=O)CCc1ccccc1 (stereo not drawn) [Mefranal]
B: CC(CC=O)CCCC(C)(C)O (stereo not drawn) [Hydroxycitronellal]
Input: Pick one, A or B : lowest reported Water solubility. State your choice using its label.
Output: A
(A: 100 ppm, B: 1800 ppm)

----------
method_summary: Aggregation of polyamide capsules (Example 2 method)
Format: physicochemical
Set-up: key: ∘: no aggregation of the capsules; +: aggregation of few capsules together only visible under microscopy; ++: aggregates of mm size; +++: important aggregation; ++++: aggregation is such that a cake is obtained
measurement_conditions: free aldehyde as phase B at 5% in phase A of Table 1
quantity_measured: Encapsulation, No precursor (scale of aggregation)

Record excerpt, results attached:
compound	observed
CC1=CC(C)C(C=O)CC1 (stereo not drawn)	++++
CCCCCCCCCC=O	+++
CCCCCCCCCC(C)C=O (stereo not drawn)	++
COc1ccc(C=O)cc1 [Aubepine para cresol]	++
CC(C=O)Cc1ccc(C(C)(C)C)cc1 (stereo not drawn)	++

Continue with the next compound.
Input: Recall and state the measured Encapsulation, No precursor (scale of aggregation) for CCCCCCCCCCCC=O .
Output: +++

----------
method_summary: Aggregation of polyurea capsules, Method 5.5
Type: physicochemical
Set-up: key: ∘: no aggregation of the capsules; +: aggregation of few capsules together only visible under microscopy; ++: aggregates of mm size; +++: important aggregation; ++++: aggregation is such that a cake is obtained
measurement_conditions: polyurea Method 5.5; free aldehyde as phase B, phase A of Table 1
quantity_measured: Encapsulation, No precursor (scale of aggregation)

Completed entries (count: 5):
molecule	observed
CCCCCCCCCC(C)C=O (stereo not drawn) [Aldehyde C12 mna]	∘
CCCCCCCCCCCC=O [Aldehyde C12 laurique]	++
CCCCCCCCCC=O [Aldehyde C10]	+++
CC1=CC(C)C(C=O)CC1 (stereo not drawn) [Tricyclal]	++++
CC(CC=O)CCCC(C)(C)O (stereo not drawn) [Hydroxycitronellal]	++++

Input: State its Encapsulation, No precursor (scale of aggregation): CC(C=O)Cc1ccc(C(C)(C)C)cc1 (stereo not drawn) [Lilial]
Output: ∘
